# Test target: Cytochrome P450 3A4 (Homo sapiens, UniProt P08684)
# Sequence (P08684 whole entry): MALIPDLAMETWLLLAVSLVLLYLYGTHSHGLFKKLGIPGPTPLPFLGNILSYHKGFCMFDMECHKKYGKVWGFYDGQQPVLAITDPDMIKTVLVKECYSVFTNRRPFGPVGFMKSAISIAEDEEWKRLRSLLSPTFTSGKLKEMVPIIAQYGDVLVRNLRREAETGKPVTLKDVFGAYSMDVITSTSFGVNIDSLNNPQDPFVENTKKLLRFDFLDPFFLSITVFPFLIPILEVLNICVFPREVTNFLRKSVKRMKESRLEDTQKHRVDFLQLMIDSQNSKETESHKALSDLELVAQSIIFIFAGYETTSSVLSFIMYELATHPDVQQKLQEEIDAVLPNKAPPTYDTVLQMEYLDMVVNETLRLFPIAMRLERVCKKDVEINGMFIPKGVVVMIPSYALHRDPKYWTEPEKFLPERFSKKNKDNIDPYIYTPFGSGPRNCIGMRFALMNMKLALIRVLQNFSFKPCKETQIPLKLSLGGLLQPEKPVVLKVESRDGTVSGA
# Experimental details: Inhibition of CYP3A4 (unknown origin) using testosterone as substrate
# Format: ADME
# IC50 per entry

                            chemical_string                               test_target  value_reported
0  NC(=O)c1cc(Cl)c2c(Cl)c(C3CC3)n([C@H]3CCCNC3)c2n1  Cytochrome P450 3A4 (Homo sapiens, UniProt P08684)           21 µM

Entry `NC(=O)c1cc(Cl)c2c(Cl)c(C3CC3)n([C@@H]3CCCNC3)c2n1` has what IC50?
> 30 µM

====

The following compounds are shown together with reported half-life values.
# Experimental details: Half life in mouse at 3 mg/kg, iv administered as single dose
# Type: ADME, organism-based
# Measurement setup: in vivo
A number alone suffices; assume h.

Solved cases below.
>>> print(df.to_string())
                                   compound  value_reported
0  NC(=O)c1cc(Cl)c2c(Cl)c(C#CC3CC3)n(C3CCCNC3)c2n1 (racemic)             2.6
1  NC(=O)c1cc(Cl)c2c(Cl)c(C3CC3)n(C3CCCNC3)c2n1 (racemic)             3.1

Shifting focus to the compound that follows.
Using the record for NC(=O)c1cc(Cl)c2c(Cl)c(I)n(C3CCCNC3)c2n1 (racemic) , report its half-life.
1.5

====

Known Cmax of a selection of compounds
# Experimental details: Cmax in mouse at 3 mg/kg, iv or 10 mg/kg, po administered as single dose
# Type: ADME, organism-based
# Measurement setup: in vivo
Respond with the bare value in ng/mL.

Past entries and their recorded results:
                                   compound  assay_endpoint  unit_of_measure  value_reported
0  NC(=O)c1cc(Cl)c2c(Cl)c(I)n(C3CCCNC3)c2n1 (racemic)            Cmax            ng/mL            3500
1  NC(=O)c1cc(Cl)c2c(Cl)c(C3CC3)n(C3CCCNC3)c2n1 (racemic)            Cmax            ng/mL             292

Which Cmax is listed for NC(=O)c1cc(Cl)c2c(Cl)c(C#CC3CC3)n(C3CCCNC3)c2n1 (racemic) ?
958

====

# Experimental details: Clearance in rat at 3 mg/kg, iv administered as single dose
# Type: ADME, organism-based
# Measurement setup: in vivo
Assay endpoint: clearance (mL/min/kg)
Unit mL/min/kg implied. Number only.

Please give the measured clearance for this molecule: `NC(=O)c1cc(Cl)c2c(Cl)c(C3CC3)n([C@H]3CCCNC3)c2n1`
18.3

====

# Experimental details: Clearance in mouse at 3 mg/kg, iv administered as single dose
# Format: ADME, organism-based
# Measurement setup: in vivo
Assay endpoint: clearance (mL/min/kg)
Just the number please, in mL/min/kg, no unit attached.

Below, each entry is followed by its recorded clearance result.
In [3]: df
Out[3]:
                                   molecule  value_reported
0  NC(=O)c1cc(Cl)c2c(Cl)c(C3CC3)n(C3CCCNC3)c2n1 (racemic)            18.3
1  NC(=O)c1cc(Cl)c2c(Cl)c(I)n(C3CCCNC3)c2n1 (racemic)               6

Value lookup for clearance; key = NC(=O)c1cc(Cl)c2c(Cl)c(C#CC3CC3)n(C3CCCNC3)c2n1 (racemic)
65
